Every entry's value here was drawn from PubChem BioAssay.

# measurement.notes: growth inhibitors of H69AR lung tumor, primary screen, human, duplicate replicates (AID 580)
# measurement.conditions: H69AR lung tumor cells viability, ATP luminescence, 72 h; at 10 µM; active compounds read low
Would you mind sorting the entries by viability according to these classes? LOW (below 80%), MID (80% to below 90%), HIGH (90% or more)

| compound | group |
| --- | --- |
| COc1cc(CC(=O)Oc2ccc3c(c2)OCO3)cc(OC)c1OC | MID |
| CC1(C)S[C@@H]2[C@H](NC(=O)[C@H](C(=O)O)c3ccsc3)C(=O)N2[C@H]1C(=O)O | HIGH |
| CCCn1c(=N)n(CCOc2ccc(OC)cc2)c2ccccc21 | LOW |
| CC1(C)Cc2c(C#N)c(SCCC#N)nc(N3CCOCC3)c2CS1 | MID |
| CN(C)CCNC(=O)c1ccc(COCC(F)(F)F)cc1 | MID |
| CCOC(=O)N1CCC(NC(=O)Cc2ccc(-n3c(=O)[nH]c4ccccc4c3=O)cc2)CC1 | HIGH |
| COc1ccc(Cc2nc3ccc(S(N)(=O)=O)cc3[nH]2)cc1OC | HIGH |
| CCOc1ccc(N2CC(C(=O)Nc3ccc(F)cc3F)CC2=O)cc1 (configuration not stated) | HIGH |
| CCCSc1nc(N)c(C#N)c(-c2ccc(C)cc2)c1C#N | LOW |
| CC1CCc2cc(F)cc3c(O)c(C(=O)Nc4cnccn4)c(=O)n1c23 (configuration not stated) | HIGH |
| COCCn1nnnc1C(c1cc2ccc(OC)cc2[nH]c1=O)N1CCc2ccccc2C1 (configuration not stated) | MID |
| Cc1ccc2[nH]c(=O)c(-c3noc(-c4ccncc4)n3)cc2c1 | HIGH |
